src = ChEMBL document CHEMBL1153762

- ASSAY_TEXT: Metabolic stability in rat liver microsomes assessed as compound remaining at 2 uM after 10 mins
- Type: ADME, Microsome
- RECORDED_CONDITIONS: read-out: Stability
MEASURED_METRIC: remaining at 10 min, 2 µM (%)
Answer format: numeric, % implied, no suffix.

# input compound: `NS(=O)(=O)NCc1csc2ccccc12` ; wanted: its remaining at 10 min, 2 µM
76

====

- EXPERIMENTAL_TARGET: Voltage-dependent N-type calcium channel subunit alpha-1B (Rattus norvegicus)
- Sequence (Q02294 whole entry): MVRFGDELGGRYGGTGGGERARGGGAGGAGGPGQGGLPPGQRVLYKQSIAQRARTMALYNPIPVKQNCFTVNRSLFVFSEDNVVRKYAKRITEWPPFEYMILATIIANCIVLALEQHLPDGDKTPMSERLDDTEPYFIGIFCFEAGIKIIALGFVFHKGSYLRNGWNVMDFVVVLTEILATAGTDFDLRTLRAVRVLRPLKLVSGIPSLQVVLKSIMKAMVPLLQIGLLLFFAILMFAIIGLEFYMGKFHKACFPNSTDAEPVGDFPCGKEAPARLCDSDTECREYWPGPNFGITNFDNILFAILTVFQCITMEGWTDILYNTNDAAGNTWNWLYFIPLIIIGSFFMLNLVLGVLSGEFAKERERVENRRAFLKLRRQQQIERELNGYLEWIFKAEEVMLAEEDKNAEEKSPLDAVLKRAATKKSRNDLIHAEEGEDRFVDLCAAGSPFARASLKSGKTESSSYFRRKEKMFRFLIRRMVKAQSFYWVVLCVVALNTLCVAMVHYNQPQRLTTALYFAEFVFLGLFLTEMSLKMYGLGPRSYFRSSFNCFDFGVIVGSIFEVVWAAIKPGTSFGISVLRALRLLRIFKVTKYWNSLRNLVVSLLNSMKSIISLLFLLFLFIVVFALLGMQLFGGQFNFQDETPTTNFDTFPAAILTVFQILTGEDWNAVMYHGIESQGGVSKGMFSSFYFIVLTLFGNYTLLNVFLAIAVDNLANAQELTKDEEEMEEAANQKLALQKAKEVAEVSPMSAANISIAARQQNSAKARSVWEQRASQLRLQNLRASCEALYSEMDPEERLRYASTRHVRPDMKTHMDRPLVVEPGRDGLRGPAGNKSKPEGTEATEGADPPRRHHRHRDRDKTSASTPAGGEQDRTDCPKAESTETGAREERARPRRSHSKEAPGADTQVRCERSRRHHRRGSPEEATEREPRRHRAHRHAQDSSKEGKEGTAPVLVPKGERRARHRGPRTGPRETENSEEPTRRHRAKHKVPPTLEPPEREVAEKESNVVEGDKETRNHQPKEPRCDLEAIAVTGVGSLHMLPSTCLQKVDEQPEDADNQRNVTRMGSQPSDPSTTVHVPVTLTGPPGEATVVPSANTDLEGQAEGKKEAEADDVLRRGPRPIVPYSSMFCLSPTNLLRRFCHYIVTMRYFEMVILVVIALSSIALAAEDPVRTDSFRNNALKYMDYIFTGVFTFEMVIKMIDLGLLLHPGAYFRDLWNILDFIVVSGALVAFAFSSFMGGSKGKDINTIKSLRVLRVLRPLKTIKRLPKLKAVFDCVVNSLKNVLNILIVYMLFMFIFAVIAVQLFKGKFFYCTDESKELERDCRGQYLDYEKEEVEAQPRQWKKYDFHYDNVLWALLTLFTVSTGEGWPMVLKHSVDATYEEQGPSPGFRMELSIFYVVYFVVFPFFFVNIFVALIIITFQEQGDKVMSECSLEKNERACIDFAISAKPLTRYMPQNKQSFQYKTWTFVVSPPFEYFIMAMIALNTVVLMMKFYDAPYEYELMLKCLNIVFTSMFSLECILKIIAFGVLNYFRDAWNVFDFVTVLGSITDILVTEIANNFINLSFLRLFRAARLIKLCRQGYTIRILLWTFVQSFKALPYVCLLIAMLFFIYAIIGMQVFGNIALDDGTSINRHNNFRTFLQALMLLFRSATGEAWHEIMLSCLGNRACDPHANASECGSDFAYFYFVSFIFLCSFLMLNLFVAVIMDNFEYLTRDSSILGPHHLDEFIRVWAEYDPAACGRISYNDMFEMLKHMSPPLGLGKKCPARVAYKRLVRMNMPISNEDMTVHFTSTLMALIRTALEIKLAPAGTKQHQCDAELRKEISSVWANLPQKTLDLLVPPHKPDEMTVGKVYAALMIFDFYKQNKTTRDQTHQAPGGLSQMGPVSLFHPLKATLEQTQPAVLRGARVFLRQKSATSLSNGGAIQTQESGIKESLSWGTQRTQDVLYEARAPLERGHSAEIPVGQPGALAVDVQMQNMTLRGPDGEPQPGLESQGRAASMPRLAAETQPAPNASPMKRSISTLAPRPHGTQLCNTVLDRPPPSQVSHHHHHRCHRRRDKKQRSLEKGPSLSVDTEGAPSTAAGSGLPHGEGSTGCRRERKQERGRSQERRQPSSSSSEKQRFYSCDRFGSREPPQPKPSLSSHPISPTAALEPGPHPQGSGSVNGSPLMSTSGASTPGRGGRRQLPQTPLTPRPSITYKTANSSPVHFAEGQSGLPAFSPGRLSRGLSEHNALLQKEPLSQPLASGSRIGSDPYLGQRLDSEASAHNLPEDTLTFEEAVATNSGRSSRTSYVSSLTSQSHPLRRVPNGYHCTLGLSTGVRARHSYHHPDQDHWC
- ASSAY_TEXT: Inhibition of rat Cav2.2 channel expressed in 0.07 Hz frequency-stimulated HEK cells by whole-cell patch-clamp technique
- Assay type: cell-based, HEK293
MEASURED_METRIC: pIC50
By convention, pIC50 is the negative base-10 log of a molar concentration.

# input compound: `NS(=O)(=O)NCc1csc2ccccc12` ; wanted: its pIC50
3.88

====

- ASSAY_TEXT: Bioavailability in mouse at 30 mg/kg, po and 3 mg/kg, iv administered as bolus dose
- Assay type: ADME, organism-based
- RECORDED_CONDITIONS: in vivo
MEASURED_METRIC: bioavailability (%)
Answer format: numeric, % implied, no suffix.

# input molecule: `NS(=O)(=O)NCc1csc2ccccc12` ; wanted: its bioavailability
59

====

- ASSAY_TEXT: Plasma concentration in rat assessed as unchanged compound remaining at 59.2 kBq/mg, po after 4 hrs by MS/MS analysis
- Format: ADME, organism-based
- RECORDED_CONDITIONS: read-out: Activity
MEASURED_METRIC: remaining at 4 h

# input compound: `NS(=O)(=O)NCc1csc2ccccc12` ; wanted: its remaining at 4 h
60%

====

- EXPERIMENTAL_TARGET: Carbonic anhydrase 1 (Homo sapiens)
- Sequence (P00915 whole entry): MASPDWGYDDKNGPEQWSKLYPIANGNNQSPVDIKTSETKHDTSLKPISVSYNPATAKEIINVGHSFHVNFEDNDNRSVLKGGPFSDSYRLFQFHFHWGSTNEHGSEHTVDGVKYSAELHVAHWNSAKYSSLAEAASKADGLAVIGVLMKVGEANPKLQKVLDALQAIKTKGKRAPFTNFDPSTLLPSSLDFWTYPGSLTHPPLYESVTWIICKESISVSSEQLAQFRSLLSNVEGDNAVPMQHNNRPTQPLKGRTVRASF
MEASURED_METRIC: pIC50
By convention, pIC50 is the negative base-10 log of a molar concentration.

# input compound: `NS(=O)(=O)NCc1csc2ccccc12` ; wanted: its pIC50
4.60

====

- EXPERIMENTAL_TARGET: Carbonic anhydrase 2 (Homo sapiens)
- ASSAY_TEXT: Inhibition of human carbonic anhydrase 2 by fluorimetric assay
MEASURED_METRIC: IC50 (µM)
Answer format: numeric, µM implied, no suffix.

A selection of reference data follows.
- CHEMICAL_STRING: "NS(=O)(=O)NCc1csc2ccc(Cl)cc12"
  EXPERIMENTAL_TARGET: "Carbonic anhydrase 2 (Homo sapiens)"
  IC50 (µM): 8.4
- CHEMICAL_STRING: "NS(=O)(=O)NCc1c[nH]c2ccccc12"
  EXPERIMENTAL_TARGET: "Carbonic anhydrase 2 (Homo sapiens)"
  IC50 (µM): 300
- CHEMICAL_STRING: "NS(=O)(=O)NCc1csc2ccc(Br)cc12"
  EXPERIMENTAL_TARGET: "Carbonic anhydrase 2 (Homo sapiens)"
  IC50 (µM): 100
- CHEMICAL_STRING: "NS(=O)(=O)NCc1csc2ccccc12"
  EXPERIMENTAL_TARGET: "Carbonic anhydrase 2 (Homo sapiens)"
  IC50 (µM): 66

Here's the next entry for you.
# input compound: `Cc1ccc2scc(CNS(N)(=O)=O)c2c1` ; wanted: its IC50
45

====

- EXPERIMENTAL_TARGET: Sodium channel protein type 2 subunit alpha (Rattus norvegicus)
- Sequence (P04775 whole entry): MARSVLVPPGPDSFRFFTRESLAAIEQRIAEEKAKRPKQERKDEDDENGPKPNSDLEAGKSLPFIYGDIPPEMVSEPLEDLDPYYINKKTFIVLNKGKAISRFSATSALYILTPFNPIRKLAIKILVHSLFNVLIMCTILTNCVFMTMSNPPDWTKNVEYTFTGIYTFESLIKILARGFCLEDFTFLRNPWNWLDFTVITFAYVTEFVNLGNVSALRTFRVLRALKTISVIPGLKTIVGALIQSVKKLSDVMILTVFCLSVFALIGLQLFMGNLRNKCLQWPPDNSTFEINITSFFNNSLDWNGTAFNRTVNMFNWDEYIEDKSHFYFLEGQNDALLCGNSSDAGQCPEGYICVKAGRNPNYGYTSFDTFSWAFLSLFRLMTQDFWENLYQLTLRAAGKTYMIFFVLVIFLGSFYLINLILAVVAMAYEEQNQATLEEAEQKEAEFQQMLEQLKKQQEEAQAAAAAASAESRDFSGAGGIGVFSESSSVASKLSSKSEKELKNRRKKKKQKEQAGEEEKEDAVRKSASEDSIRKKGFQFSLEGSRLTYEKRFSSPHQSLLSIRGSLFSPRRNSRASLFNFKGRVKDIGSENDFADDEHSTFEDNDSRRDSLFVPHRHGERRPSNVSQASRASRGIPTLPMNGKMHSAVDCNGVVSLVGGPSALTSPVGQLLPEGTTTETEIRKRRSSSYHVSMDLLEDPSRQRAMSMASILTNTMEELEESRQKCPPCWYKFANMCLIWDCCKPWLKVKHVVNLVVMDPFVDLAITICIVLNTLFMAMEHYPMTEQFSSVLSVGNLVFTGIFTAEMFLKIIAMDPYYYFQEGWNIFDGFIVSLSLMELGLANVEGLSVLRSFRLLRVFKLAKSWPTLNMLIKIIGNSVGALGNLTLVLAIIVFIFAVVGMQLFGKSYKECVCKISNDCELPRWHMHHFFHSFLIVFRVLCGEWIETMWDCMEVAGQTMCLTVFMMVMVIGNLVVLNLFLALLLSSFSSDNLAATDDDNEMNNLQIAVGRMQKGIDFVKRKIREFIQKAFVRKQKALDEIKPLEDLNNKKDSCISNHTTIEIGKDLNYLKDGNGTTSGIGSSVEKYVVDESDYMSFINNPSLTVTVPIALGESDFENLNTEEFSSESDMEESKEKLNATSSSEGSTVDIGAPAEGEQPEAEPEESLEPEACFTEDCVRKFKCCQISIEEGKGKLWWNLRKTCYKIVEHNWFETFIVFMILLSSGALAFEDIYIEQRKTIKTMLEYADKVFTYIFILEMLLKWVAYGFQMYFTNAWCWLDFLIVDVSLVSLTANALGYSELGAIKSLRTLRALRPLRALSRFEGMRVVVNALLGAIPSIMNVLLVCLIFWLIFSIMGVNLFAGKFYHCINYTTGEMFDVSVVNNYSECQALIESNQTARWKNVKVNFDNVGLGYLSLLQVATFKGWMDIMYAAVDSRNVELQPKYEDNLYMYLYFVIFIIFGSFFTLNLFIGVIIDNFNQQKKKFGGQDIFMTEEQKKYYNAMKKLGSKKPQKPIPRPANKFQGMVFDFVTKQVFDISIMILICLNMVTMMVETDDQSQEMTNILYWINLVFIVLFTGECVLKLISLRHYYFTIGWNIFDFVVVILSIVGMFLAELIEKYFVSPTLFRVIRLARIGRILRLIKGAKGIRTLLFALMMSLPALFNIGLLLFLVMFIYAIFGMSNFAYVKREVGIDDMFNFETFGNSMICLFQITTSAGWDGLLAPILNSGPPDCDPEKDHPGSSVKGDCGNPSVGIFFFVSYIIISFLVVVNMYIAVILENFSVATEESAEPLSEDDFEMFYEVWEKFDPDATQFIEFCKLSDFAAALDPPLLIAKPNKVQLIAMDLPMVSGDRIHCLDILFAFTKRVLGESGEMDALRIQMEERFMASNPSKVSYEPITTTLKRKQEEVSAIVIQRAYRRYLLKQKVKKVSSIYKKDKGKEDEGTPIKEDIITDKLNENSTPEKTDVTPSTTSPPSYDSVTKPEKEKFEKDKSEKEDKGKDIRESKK
- ASSAY_TEXT: Inhibition of rat Nav1.2 channel expressed in chinese hamster CHL1610 cells at preconditioning pulse of -67 mV after 2 to 3 mins by whole-cell patch-clamp technique
- Type: cell-based
pIC50: recorded values
By convention, pIC50 is the negative base-10 log of a molar concentration.

- MOLECULE: "NS(=O)(=O)NCc1csc2ccccc12"
  pIC50: 4.32
- MOLECULE: "Nc1nnc(-c2cccc(Cl)c2Cl)c(N)n1"
  pIC50: 4.46
- MOLECULE: "CC1(C)O[C@@H]2[C@@H](CO[C@@]3(COS(N)(=O)=O)OC(C)(C)O[C@@H]23)O1 [TOPIRAMATE]"
  pIC50: 4.01

Value wanted: pIC50 (Sodium channel protein type 2 subunit alpha (Rattus norvegicus)) of entry `O=C1NC(=O)C(c2ccccc2)(c2ccccc2)N1`
4.66
